test: inhibition of endothelial tube formation, primary screen, imaging, VEGF stimulated, CD31 staining, tube area, NPC library (AID 1117340); conditions: VEGF-stimulated ADSC/ECFC co-culture, at 10 µM, active compounds read high

COMPOUND: CCCCCCCCCCCCOS(=O)(=O)O
UNIT DESCRIPTOR: %
tube area decrease: 4.9
//
COMPOUND: CC[C@@H]([C@H](C)O)n1ncn(-c2ccc(N3CCN(c4ccc(OC[C@@H]5CO[C@@](Cn6cncn6)(c6ccc(F)cc6F)C5)cc4)CC3)cc2)c1=O
UNIT DESCRIPTOR: %
tube area decrease: 97.9
//
COMPOUND: O=c1n(CCCN2CCN(c3cccc(Cl)c3)CC2)nc2ccccn12
UNIT DESCRIPTOR: %
tube area decrease: 4.5
//
COMPOUND: CC(C)=CCNc1ncnc2c1ncn2[C@@H]1O[C@H](CO)[C@@H](O)[C@H]1O
UNIT DESCRIPTOR: %
tube area decrease: 106
//
COMPOUND: Nc1c(N=Nc2ccc(-c3ccc(N=Nc4cc(S(=O)(=O)O)c5ccccc5c4N)cc3)cc2)cc(S(=O)(=O)O)c2ccccc12
UNIT DESCRIPTOR: %
tube area decrease: 16.8
//
COMPOUND: CCCCOC(=O)CCCCCCCCC(=O)OCCCC
UNIT DESCRIPTOR: %
tube area decrease: 3.7
//
COMPOUND: CN[C@H]1CC[C@@H](c2ccc(Cl)c(Cl)c2)c2ccccc21
UNIT DESCRIPTOR: %
tube area decrease: 67.1
//
COMPOUND: NCCC(=O)[N-][C@@H](Cc1cnc[nH]1)C(=O)O.[Zn]
UNIT DESCRIPTOR: %
tube area decrease: 9.1
//
COMPOUND: CCOC(CN1CCN(CC(C)C(=O)c2ccccc2)CC1)c1ccccc1 (stereo unspecified)
UNIT DESCRIPTOR: %
tube area decrease: 14
//
COMPOUND: C[C@H](N)C(=O)N[C@@H](C)C(=O)NC1[C@H]2CN(c3nc4c(cc3F)c(=O)c(C(=O)O)cn4-c3ccc(F)cc3F)C[C@@H]12 (stereo partly specified)
UNIT DESCRIPTOR: %
tube area decrease: 1.8
//
COMPOUND: CCOC(=O)N1CCC(Nc2ccc(Cl)cc2N)CC1
UNIT DESCRIPTOR: %
tube area decrease: 41.4
//
COMPOUND: CN(C)CCOC(C)(c1ccccc1)c1ccccn1 (stereo unspecified)
UNIT DESCRIPTOR: %
tube area decrease: -15.5
//
COMPOUND: FC1(F)C(F)(F)C(F)(F)C2(F)C(F)(F)C(F)(F)C(F)(F)C(F)(F)C2(F)C1(F)F (stereo unspecified)
UNIT DESCRIPTOR: %
tube area decrease: 10.2
//
COMPOUND: Cc1cccc(N(C)C(=S)Oc2ccc3c(c2)C2CCC3C2)c1 (stereo unspecified)
UNIT DESCRIPTOR: %
tube area decrease: 15.8
//
COMPOUND: CC(C)=CCOc1ccc(/C=C/C(=O)c2ccc(OCC=C(C)C)cc2OCC(=O)O)cc1
UNIT DESCRIPTOR: %
tube area decrease: 108
//
COMPOUND: Cc1cc(=O)oc2cc(O[C@@H]3SC[C@@H](O)[C@H](O)[C@H]3O)ccc12
UNIT DESCRIPTOR: %
tube area decrease: 13.6
//
COMPOUND: Cc1cc(CCCOc2c(C)cc(-c3noc(C(F)(F)F)n3)cc2C)on1
UNIT DESCRIPTOR: %
tube area decrease: -0.1
//
COMPOUND: Cn1c(O)c(N=NC(N)=S)c2ccccc21
UNIT DESCRIPTOR: %
tube area decrease: 28.1
//
COMPOUND: COC(=O)c1ccc(NC(C)=O)cc1OC
UNIT DESCRIPTOR: %
tube area decrease: -3.1
//
COMPOUND: COc1ccccc1OCC(O)COC(N)=O (stereo unspecified)
UNIT DESCRIPTOR: %
tube area decrease: 8.8
//
COMPOUND: C=CCN1CCc2nc(N)sc2CC1
UNIT DESCRIPTOR: %
tube area decrease: 7.1

Origin of measurements: PubChem BioAssay
